# maps each entry to its log10(minimal effective concentration)
Test system: IL-1β
Experiment: Whole bovine blood assay, LPS-induced IL-1β (inhibition / overstimulation)
Format: cell-based
Conditions: drug concentration giving overstimulation (OS) of LPS-induced IL-1β, top concentration 250 μM
Transform log10 | Measure minimal effective concentration | Unit µM

Check out these entries, answers already filled in.
[[record]]
compound = "CCCNC[C@]1(O)[C@H](C)O[C@@H](O[C@H]2[C@H](C)[C@@H](O[C@@H]3O[C@H](C)C[C@H](N(C)S(=O)(=O)c4ccc(C#N)nc4)[C@H]3O)[C@](C)(O)C[C@@H](C)CN[C@H](C)[C@@H](O)[C@](C)(O)[C@@H](CC)OC(=O)[C@@H]2C)C[C@@]1(C)OC [Example B-17]"
recorded_measurement = 2.00

[[record]]
compound = "CCCNC[C@]1(O)[C@H](C)O[C@@H](O[C@H]2[C@H](C)[C@@H](O[C@@H]3O[C@H](C)C[C@H](N(C)S(=O)(=O)Nc4ccc(F)cc4)[C@H]3O)[C@](C)(O)C[C@@H](C)CN[C@H](C)[C@@H](O)[C@](C)(O)[C@@H](CC)OC(=O)[C@@H]2C)C[C@@]1(C)OC [Example B-53]"
recorded_measurement = 1.20

[[record]]
compound = "CCCNC[C@]1(O)[C@H](C)O[C@@H](O[C@H]2[C@H](C)[C@@H](O[C@@H]3O[C@H](C)C[C@H](N(C)S(=O)(=O)c4cnn(-c5ccc(C(F)(F)F)cn5)c4)[C@H]3Oc3ccc(OC)cc3)[C@](C)(O)C[C@@H](C)CN[C@H](C)[C@@H](O)[C@](C)(O)[C@@H](CC)OC(=O)[C@@H]2C)C[C@@]1(C)OC [Example B-123]"
recorded_measurement = 0.78


*Q* # log10(minimal effective concentration) lookup, item CC[C@H]1OC(=O)[C@H](C)[C@@H](O)[C@H](C)[C@@H](O[C@@H]2O[C@H](C)C[C@H](N(C)S(=O)(=O)c3nccn3C)[C@H]2Oc2ccc(F)c(C(F)(F)F)c2)[C@](C)(O)C[C@@H](C)CN[C@H](C)[C@@H](O)[C@]1(C)O [Example A-34]
*A* 1.60

*Q* # log10(minimal effective concentration) lookup, item CCCNC[C@]1(O)[C@H](C)O[C@@H](O[C@H]2[C@H](C)[C@@H](O[C@@H]3O[C@H](C)C[C@H](N(C)S(=O)(=O)c4c(C)noc4C)[C@H]3O)[C@](C)(O)C[C@@H](C)CN[C@H](C)[C@@H](O)[C@](C)(O)[C@@H](CC)OC(=O)[C@@H]2C)C[C@@]1(C)OC [Example B-4]
*A* 1.60

*Q* # log10(minimal effective concentration) lookup, item CCCN1C[C@H](C)C[C@@](C)(O)[C@H](O[C@@H]2O[C@H](C)C[C@H](N(C)S(N)(=O)=O)[C@H]2O)[C@@H](C)[C@H](O[C@H]2C[C@@](C)(OC)[C@](O)(CN3CCCCC3)[C@H](C)O2)[C@@H](C)C(=O)O[C@H](CC)[C@@](C)(O)[C@H](O)[C@H]1C [Example C-17]
*A* 2.40

*Q* # log10(minimal effective concentration) lookup, item CCCNC[C@]1(O)[C@H](C)O[C@@H](O[C@H]2[C@H](C)[C@@H](O[C@@H]3O[C@H](C)C[C@H](N(C)S(=O)(=O)c4ccccc4)[C@H]3Oc3ccc(F)cc3)[C@](C)(O)C[C@@H](C)CN[C@H](C)[C@@H](O)[C@](C)(O)[C@@H](CC)OC(=O)[C@@H]2C)C[C@@]1(C)OC [Example B-109]
*A* 0.48
